# Tested on: PBMC
# Protocol Summary: Inhibition of LPS-stimulated TNF-alpha release from human peripheral blood mononuclear cells
# Type: functional, cell-based
pIC50: −log10 of the molar value.
Observable: pIC50

>>> numeric_result("Nc1nc(N)c(F)c(-c2nc(-c3cccc(C(F)(F)F)c3)c(-c3ccncc3)[nH]2)c1F")
7.27
>>> numeric_result("Nc1nc(N)c(F)c(-c2nc(-c3ccc(F)cc3)c(-c3ccncc3)o2)c1F")
6.43
>>> numeric_result("Nc1nc(N)c(F)c(-c2nc(-c3ccc(F)cc3)c(-c3ccncc3)s2)c1F")
7.51
>>> numeric_result("Nc1nc(N)c(F)c(-c2nc(-c3ccc(F)cc3)c(-c3ccncc3)[nH]2)c1F")
7.36
>>> numeric_result("Nc1nc(N)c(F)c(-c2cc(-c3ccncc3)c(-c3ccc(F)cc3)[nH]2)c1F")
7.74
>>> numeric_result("Nc1nc(F)c(F)c(-c2nc(-c3ccncc3)c(-c3ccc(F)cc3)[nH]2)c1F")
7.36
>>> numeric_result("Nc1nc(N)c(F)c(-c2nc(-c3ccncc3)c(-c3ccco3)[nH]2)c1F")
6.53
>>> numeric_result("Nc1nc(F)c(F)c(-c2nc(-c3ccc(F)cc3)c(-c3ccncc3)o2)c1F")
5.71
>>> numeric_result("Nc1nc(N)c(F)c(-c2nc(-c3ccncc3)c(-c3cc4ccccc4o3)[nH]2)c1F")
7.57
>>> numeric_result("Fc1ccc(-c2[nH]c(-c3c(F)c(F)nc(F)c3F)nc2-c2ccncc2)cc1")
7.13

###

# Measurement Target: Prostaglandin G/H synthase 1 (Ovis aries)
# Sequence (P05979 whole entry): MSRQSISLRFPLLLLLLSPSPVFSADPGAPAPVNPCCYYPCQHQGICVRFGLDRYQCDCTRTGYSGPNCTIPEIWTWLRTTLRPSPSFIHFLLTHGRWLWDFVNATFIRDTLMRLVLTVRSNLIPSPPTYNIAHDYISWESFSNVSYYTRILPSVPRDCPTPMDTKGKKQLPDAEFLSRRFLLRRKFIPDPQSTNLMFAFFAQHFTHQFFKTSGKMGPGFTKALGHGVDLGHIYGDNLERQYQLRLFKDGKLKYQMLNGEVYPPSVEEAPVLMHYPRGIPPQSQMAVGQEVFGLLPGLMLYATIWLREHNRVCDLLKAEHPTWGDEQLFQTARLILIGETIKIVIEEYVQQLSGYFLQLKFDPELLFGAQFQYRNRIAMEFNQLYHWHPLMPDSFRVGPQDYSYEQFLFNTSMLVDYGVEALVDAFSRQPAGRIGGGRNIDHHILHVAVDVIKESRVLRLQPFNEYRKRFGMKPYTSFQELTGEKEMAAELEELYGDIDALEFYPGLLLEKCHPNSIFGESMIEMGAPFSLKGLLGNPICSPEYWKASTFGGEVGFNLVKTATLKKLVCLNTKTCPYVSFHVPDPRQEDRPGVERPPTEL
Observable: IC50 (µM)

>>> numeric_result("Nc1nc(N)c(F)c(-c2nc(-c3ccncc3)c(-c3ccco3)[nH]2)c1F")
100
>>> numeric_result("Nc1nc(F)c(F)c(-c2nc(-c3ccc(F)cc3)c(-c3ccncc3)o2)c1F")
100
>>> numeric_result("Fc1ccc(-c2nn(-c3c(F)c(F)nc(F)c3F)nc2-c2ccncc2)cc1")
10

###

# Protocol Summary: Tested for the half life in rat
# Assay type: ADME, organism-based
# Particulars: in vivo
Observable: half-life (h)

>>> numeric_result("Nc1nc(N)c(F)c(-c2nc(-c3ccc(F)cc3)c(-c3ccncc3)[nH]2)c1F")
1
